Hello, the source for this data is the supplement of paper PMC12042874, in case you need it.

ASSAY INFO: amyloid nucleation score (Sup35N fusion, yeast selection) (log enrichment); library NNK2; higher = more nucleation; inactive = no reads after selection;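 note: zero at mode of non-aggregating sequences after 7 days selection at 30°C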
EXPERIMENTAL ENDPOINT: amyloid nucleation score
// return just the number, without any unit appended

Dear colleague, I am looking for the recorded amyloid nucleation score of the following substance: GCWYIDIWL 1.73

Dear colleague, I am looking for the recorded amyloid nucleation score of the following substance: IFCWRVSCEQRVFYLIESGR -0.388

Dear colleague, I am looking for the recorded amyloid nucleation score of the following substance: VMTSIVFNRVSWYFLIMFVW -0.987

Dear colleague, I am looking for the recorded amyloid nucleation score of the following substance: RLSNELKRMVYSDQVQGYSR -0.357

Dear colleague, I am looking for the recorded amyloid nucleation score of the following substance: QSTYCQRRCVC 0.042

Dear colleague, I am looking for the recorded amyloid nucleation score of the following substance: GSQVYPPPPMADM 0.426

Dear colleague, I am looking for the recorded amyloid nucleation score of the following substance: CGILYSFDGRFVYWSSYGSS -0.353

Dear colleague, I am looking for the recorded amyloid nucleation score of the following substance: TLIGKFRTNNFRSMVDAESK -0.59

Dear colleague, I am looking for the recorded amyloid nucleation score of the following substance: YLTRAIIVFIS 3.66

Dear colleague, I am looking for the recorded amyloid nucleation score of the following substance: FCLYFSKNF 3.63

Dear colleague, I am looking for the recorded amyloid nucleation score of the following substance: YTSGMFFMPMQALASETPHA -0.924

Dear colleague, I am looking for the recorded amyloid nucleation score of the following substance: DVLLVLHVIWCICYPLGVVS 0.429

Dear colleague, I am looking for the recorded amyloid nucleation score of the following substance: CLPGTCRRCQWGRGIDQSSE 0.317

Dear colleague, I am looking for the recorded amyloid nucleation score of the following substance: ALYETTVPLLVWLGA 0.463

Dear colleague, I am looking for the recorded amyloid nucleation score of the following substance: RLLFSDCFLVFLPMGCFAFF 3.69

Dear colleague, I am looking for the recorded amyloid nucleation score of the following substance: VLRRIVMMLSIS -0.069

Dear colleague, I am looking for the recorded amyloid nucleation score of the following substance: CMYNRLLLLGALFVTPQWVR 0.079

Dear colleague, I am looking for the recorded amyloid nucleation score of the following substance: PLVTWHFS 0.413

Dear colleague, I am looking for the recorded amyloid nucleation score of the following substance: RFDWVA -0.038

Dear colleague, I am looking for the recorded amyloid nucleation score of the following substance: VISNHPETTDTNRVLLYVLG 0.411

Dear colleague, I am looking for the recorded amyloid nucleation score of the following substance: TLSLSYALLSCVSVIKCPLV -0.451

Dear colleague, I am looking for the recorded amyloid nucleation score of the following substance: AINLSDKAARVPLFK -0.093

Dear colleague, I am looking for the recorded amyloid nucleation score of the following substance: KHILGQTWHSHCWFHTFEGV 2.26

Dear colleague, I am looking for the recorded amyloid nucleation score of the following substance: WCVRELLE -0.077

Dear colleague, I am looking for the recorded amyloid nucleation score of the following substance: ILQFKVGKGQGNAQLFKPII -0.935

Dear colleague, I am looking for the recorded amyloid nucleation score of the following substance: VRLFLAIMVYVLHSHHRYAD 0.978

Dear colleague, I am looking for the recorded amyloid nucleation score of the following substance: AEYKCAFFMSLNAVALDKRY 3.2

Dear colleague, I am looking for the recorded amyloid nucleation score of the following substance: CLEMFLKLCSLECARMKLPR 5.67

Dear colleague, I am looking for the recorded amyloid nucleation score of the following substance: VRVEERSVTAYRFMTKPAWW 4.88

Dear colleague, I am looking for the recorded amyloid nucleation score of the following substance: WQIGCLADIYSYLPDGNTVG -0.389

Dear colleague, I am looking for the recorded amyloid nucleation score of the following substance: NRIGDIGFSPNMCQAPNDVD 0.095

Dear colleague, I am looking for the recorded amyloid nucleation score of the following substance: FEAVDWFKL -0.603
